# Assayed Target: Sialic acid-specific 9-O-acetylesterase (Bacteroides thetaiotaomicron, UniProt Q8A0D0)
# Sequence (Q8A0D0 whole entry, change not shown): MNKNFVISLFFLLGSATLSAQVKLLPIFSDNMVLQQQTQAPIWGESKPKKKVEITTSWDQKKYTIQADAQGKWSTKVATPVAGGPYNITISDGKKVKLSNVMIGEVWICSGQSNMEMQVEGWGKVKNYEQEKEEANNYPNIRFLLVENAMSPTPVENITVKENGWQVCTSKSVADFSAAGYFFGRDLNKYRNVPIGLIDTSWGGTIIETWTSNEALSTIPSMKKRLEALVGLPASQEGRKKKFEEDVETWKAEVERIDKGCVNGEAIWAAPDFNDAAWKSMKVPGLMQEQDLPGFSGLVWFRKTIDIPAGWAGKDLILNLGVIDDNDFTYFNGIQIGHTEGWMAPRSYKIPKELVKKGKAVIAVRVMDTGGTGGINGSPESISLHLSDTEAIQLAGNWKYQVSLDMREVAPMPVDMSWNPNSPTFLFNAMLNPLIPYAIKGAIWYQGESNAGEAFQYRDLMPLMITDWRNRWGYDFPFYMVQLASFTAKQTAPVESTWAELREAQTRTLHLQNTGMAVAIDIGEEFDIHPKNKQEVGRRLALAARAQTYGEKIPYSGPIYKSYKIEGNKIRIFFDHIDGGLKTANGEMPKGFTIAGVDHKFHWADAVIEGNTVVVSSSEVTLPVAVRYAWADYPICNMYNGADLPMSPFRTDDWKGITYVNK
# Method Description: The drug is tested on Bacteroides thetaiotaomicron strain: VPI-5482 for biotransformation. The drug concentrations were measured before and after a 12-h incubation by liquid-chromatography-coupled mass spectrometry (LC–MS)
# Assay type: ADME
# Design: dose 2 uM
# Particulars: 2 µM
Measurement Label: Bacterial Biotransformation

{"Molecule": "CC(=O)SCC(Cc1ccccc1)C(=O)NCC(=O)OCc1ccccc1 (centres undefined)", "Measurement Label": "Bacterial Biotransformation", "Result": "Compound metabolized"}
{"Molecule": "COc1ccc([C@@H]2Sc3ccccc3N(CCN(C)C)C(=O)[C@@H]2OC(C)=O)cc1", "Measurement Label": "Bacterial Biotransformation", "Result": "Compound NOT metabolized"}
{"Molecule": "CC(=O)Nc1ccc(OC(C)=O)cc1 [DIACETAMATE]", "Measurement Label": "Bacterial Biotransformation", "Result": "Compound metabolized"}
{"Molecule": "C#C[C@]1(OC(C)=O)CC[C@H]2[C@@H]3CCC4=CC(=O)CC[C@@H]4[C@H]3CC[C@@]21C [NORETHINDRONE ACETATE]", "Measurement Label": "Bacterial Biotransformation", "Result": "Compound NOT metabolized"}

----------
# Particulars: anaerostipes sp., 12 h, 2 µM
# Description: The drug is tested on Anaerostipes sp. strain: fecal isolate for biotransformation. The drug concentrations were measured before and after a 12-h incubation by liquid-chromatography-coupled mass spectrometry (LC–MS)

{"Molecule": "CC(C)c1nc(N(C)S(C)(=O)=O)nc(-c2ccc(F)cc2)c1/C=C/[C@@H](O)C[C@@H](O)CC(=O)[O-].CC(C)c1nc(N(C)S(C)(=O)=O)nc(-c2ccc(F)cc2)c1/C=C/[C@@H](O)C[C@@H](O)CC(=O)[O-].[Ca+2]", "Bacterial Biotransformation": "Compound NOT metabolized"}
{"Molecule": "O=C(O[C@H]1C[C@H]2CC[C@@H](C1)[N+]21CCCC1)C(O)(c1ccccc1)c1ccccc1.[Cl-] [TROSPIUM CHLORIDE]", "Bacterial Biotransformation": "Compound NOT metabolized"}
{"Molecule": "O=C(NC(Cc1cc(=O)[nH]c2ccccc12)C(=O)O)c1ccc(Cl)cc1 (stereo not drawn) [REBAMIPIDE]", "Bacterial Biotransformation": "Compound NOT metabolized"}
{"Molecule": "CN1CCC[C@@H]1CCO[C@](C)(c1ccccc1)c1ccc(Cl)cc1.O=C(O)/C=C/C(=O)O [CLEMASTINE FUMARATE]", "Bacterial Biotransformation": "Compound NOT metabolized"}
{"Molecule": "CC(=O)OCC(=O)NCCCOc1cccc(CN2CCCCC2)c1 [ROXATIDINE ACETATE]", "Bacterial Biotransformation": "Compound metabolized"}
{"Molecule": "N[C@@H](Cc1ccc(N(CCCl)CCCl)cc1)C(=O)O", "Bacterial Biotransformation": "Compound metabolized"}
{"Molecule": "CC(C)[C@H]1CC[C@H](C(=O)N[C@H](Cc2ccccc2)C(=O)O)CC1 [NATEGLINIDE]", "Bacterial Biotransformation": "Compound NOT metabolized"}
{"Molecule": "NC12CC3CC(CC(C3)C1)C2", "Bacterial Biotransformation": "Compound NOT metabolized"}
{"Molecule": "COc1ccccc1OCC(O)CN1CCN(CC(=O)Nc2c(C)cccc2C)CC1 (stereo not drawn)", "Bacterial Biotransformation": "Compound NOT metabolized"}
{"Molecule": "C[C@@H](c1ncncc1F)[C@](O)(Cn1cncn1)c1ccc(F)cc1F", "Bacterial Biotransformation": "Compound NOT metabolized"}
{"Molecule": "CN1CCN(C2=Nc3cc(Cl)ccc3Nc3ccccc32)CC1", "Bacterial Biotransformation": "Compound NOT metabolized"}
{"Molecule": "COc1ccc(C(CN(C)C)C2(O)CCCCC2)cc1 (stereo not drawn)", "Bacterial Biotransformation": "Compound NOT metabolized"}
{"Molecule": "CS(=O)(=O)O.OC(CCN1CCCCC1)(c1ccccc1)c1ccccc1 [PRIDINOL METHANESULFONATE]", "Bacterial Biotransformation": "Compound NOT metabolized"}
{"Molecule": "CSc1ccc2c(c1)C(N1CCN(C)CC1)Cc1ccccc1S2.O=C(O)/C=C\\C(=O)O (stereo not drawn)", "Bacterial Biotransformation": "Compound metabolized"}
{"Molecule": "CCN1CCCC1CNC(=O)c1cc(S(=O)(=O)CC)c(N)cc1OC (stereo not drawn) [AMISULPRIDE]", "Bacterial Biotransformation": "Compound NOT metabolized"}
{"Molecule": "C=CCc1ccccc1OCC(O)CNC(C)C (stereo not drawn)", "Bacterial Biotransformation": "Compound NOT metabolized"}
{"Molecule": "C[C@@H]1C[C@H]2[C@@H]3CCC4=CC(=O)C=C[C@]4(C)[C@@]3(F)[C@@H](O)C[C@]2(C)[C@@]1(O)C(=O)CO", "Bacterial Biotransformation": "Compound NOT metabolized"}
{"Molecule": "CCCCC(=O)N(Cc1ccc(-c2ccccc2-c2nnn[nH]2)cc1)[C@H](C(=O)O)C(C)C", "Bacterial Biotransformation": "Compound NOT metabolized"}

----------
# Method Description: The drug is tested on Bacteroides finegoldii strain: DSM17565 for biotransformation. The drug concentrations were measured before and after a 12-h incubation by liquid-chromatography-coupled mass spectrometry (LC–MS)
# Particulars: 2 µM
Measurement Label: Bacterial Biotransformation

{"Compound": "CS(=O)(=O)O.OC(CCN1CCCCC1)(c1ccccc1)c1ccccc1 [PRIDINOL METHANESULFONATE]", "Measurement Label": "Bacterial Biotransformation", "Result": "Compound NOT metabolized"}
{"Compound": "CC(=O)Oc1ccc(C(c2ccc(OC(C)=O)cc2)c2ccccn2)cc1 [BISACODYL]", "Measurement Label": "Bacterial Biotransformation", "Result": "Compound metabolized"}
{"Compound": "CCc1cccc2c3c([nH]c12)C(CC)(CC(=O)O)OCC3 (stereo unspecified) [ETODOLAC]", "Measurement Label": "Bacterial Biotransformation", "Result": "Compound NOT metabolized"}
{"Compound": "CCS(=O)(=O)CCn1c([N+](=O)[O-])cnc1C [TINIDAZOLE]", "Measurement Label": "Bacterial Biotransformation", "Result": "Compound metabolized"}
{"Compound": "OC(CCN1CCCCC1)(c1ccccc1)C1CCCCC1 (stereo unspecified) [TRIHEXYPHENIDYL]", "Measurement Label": "Bacterial Biotransformation", "Result": "Compound NOT metabolized"}
{"Compound": "CC(C)NCC(O)COc1ccc(COCCOC(C)C)cc1.CC(C)NCC(O)COc1ccc(COCCOC(C)C)cc1.O=C(O)/C=C/C(=O)O (stereo unspecified) [BISOPROLOL FUMARATE]", "Measurement Label": "Bacterial Biotransformation", "Result": "Compound NOT metabolized"}
{"Compound": "O=C(O)CCc1nc(-c2ccccc2)c(-c2ccccc2)o1 [OXAPROZIN]", "Measurement Label": "Bacterial Biotransformation", "Result": "Compound metabolized"}
{"Compound": "CCc1oc2ccccc2c1C(=O)c1cc(Br)c(O)c(Br)c1 [BENZBROMARONE]", "Measurement Label": "Bacterial Biotransformation", "Result": "Compound NOT metabolized"}
{"Compound": "O=C1[C@H](CC[C@H](O)c2ccc(F)cc2)[C@@H](c2ccc(O)cc2)N1c1ccc(F)cc1 [EZETIMIBE]", "Measurement Label": "Bacterial Biotransformation", "Result": "Compound NOT metabolized"}
{"Compound": "CCCN1C[C@H](CSC)C[C@@H]2c3cccc4[nH]cc(c34)C[C@H]21.CS(=O)(=O)O [PERGOLIDE MESYLATE]", "Measurement Label": "Bacterial Biotransformation", "Result": "Compound NOT metabolized"}
{"Compound": "CC(C)[C@H]1CC[C@H](C(=O)N[C@H](Cc2ccccc2)C(=O)O)CC1 [NATEGLINIDE]", "Measurement Label": "Bacterial Biotransformation", "Result": "Compound NOT metabolized"}
{"Compound": "CC(C)(C)NC[C@H](O)COc1nsnc1N1CCOCC1.O=C(O)/C=C\\C(=O)O [TIMOLOL MALEATE]", "Measurement Label": "Bacterial Biotransformation", "Result": "Compound NOT metabolized"}
{"Compound": "Cc1cc2c(s1)Nc1ccccc1N=C2N1CCN(C)CC1 [OLANZAPINE]", "Measurement Label": "Bacterial Biotransformation", "Result": "Compound NOT metabolized"}
{"Compound": "CC1OC(OC2C(O)CC(OC3C(O)CC(OC4CCC5(C)C(CCC6C5CCC5(C)C(C7=CC(=O)OC7)CCC65O)C4)OC3C)OC2C)CC(O)C1O (stereo unspecified)", "Measurement Label": "Bacterial Biotransformation", "Result": "Compound NOT metabolized"}
{"Compound": "O=C(CCCN1CCC2(CC1)C(=O)NCN2c1ccccc1)c1ccc(F)cc1 [SPIPERONE]", "Measurement Label": "Bacterial Biotransformation", "Result": "Compound NOT metabolized"}
{"Compound": "C#C[C@]1(O)CC[C@H]2[C@@H]3CCC4=Cc5oncc5C[C@]4(C)[C@H]3CC[C@@]21C [DANAZOL]", "Measurement Label": "Bacterial Biotransformation", "Result": "Compound metabolized"}
{"Compound": "C[C@]12C=CC(=O)C=C1CC[C@@H]1[C@@H]2C(=O)C[C@@]2(C)[C@H]1CC[C@]2(O)C(=O)CO [PREDNISONE]", "Measurement Label": "Bacterial Biotransformation", "Result": "Compound NOT metabolized"}
{"Compound": "CCC1(c2ccc(N)cc2)CCC(=O)NC1=O (stereo unspecified) [AMINOGLUTETHIMIDE]", "Measurement Label": "Bacterial Biotransformation", "Result": "Compound NOT metabolized"}
{"Compound": "CCC(C)n1ncn(-c2ccc(N3CCN(c4ccc(OCC5COC(Cn6cncn6)(c6ccc(Cl)cc6Cl)O5)cc4)CC3)cc2)c1=O (stereo unspecified) [ITRACONAZOLE]", "Measurement Label": "Bacterial Biotransformation", "Result": "Compound NOT metabolized"}
{"Compound": "COc1c(C)c2c(c(O)c1C/C=C(\\C)CCC(=O)OCCN1CCOCC1)C(=O)OC2 [MYCOPHENOLATE MOFETIL]", "Measurement Label": "Bacterial Biotransformation", "Result": "Compound metabolized"}
{"Compound": "CCCc1nc2c(C)cc(-c3nc4ccccc4n3C)cc2n1Cc1ccc(-c2ccccc2C(=O)O)cc1", "Measurement Label": "Bacterial Biotransformation", "Result": "Compound NOT metabolized"}
{"Compound": "O=P1(N(CCCl)CCCl)NCCCO1 (stereo unspecified) [CYCLOPHOSPHAMIDE ANHYDROUS]", "Measurement Label": "Bacterial Biotransformation", "Result": "Compound NOT metabolized"}
{"Compound": "CN1C[C@H](C(=O)N[C@]2(C)O[C@@]3(O)[C@@H]4CCCN4C(=O)[C@H](Cc4ccccc4)N3C2=O)C=C2c3cccc4[nH]cc(c34)C[C@H]21.CN1C[C@H](C(=O)N[C@]2(C)O[C@@]3(O)[C@@H]4CCCN4C(=O)[C@H](Cc4ccccc4)N3C2=O)C=C2c3cccc4[nH]cc(c34)C[C@H]21.O=C(O)C(O)C(O)C(=O)O [ERGOTAMINE TARTRATE]", "Measurement Label": "Bacterial Biotransformation", "Result": "Compound metabolized"}
{"Compound": "COc1cc2nc(N3CCN(C(=O)c4ccco4)CC3)nc(N)c2cc1OC [PRAZOSIN]", "Measurement Label": "Bacterial Biotransformation", "Result": "Compound NOT metabolized"}
{"Compound": "Nc1nc2ccc(OC(F)(F)F)cc2s1 [RILUZOLE]", "Measurement Label": "Bacterial Biotransformation", "Result": "Compound NOT metabolized"}
{"Compound": "CN(C)CCOC(c1ccc(Cl)cc1)c1ccccn1.O=C(O)/C=C\\C(=O)O (stereo unspecified) [CARBINOXAMINE MALEATE]", "Measurement Label": "Bacterial Biotransformation", "Result": "Compound NOT metabolized"}
{"Compound": "CCCC1O[C@@H]2C[C@H]3[C@@H]4CCC5=CC(=O)C=C[C@]5(C)[C@H]4[C@@H](O)C[C@]3(C)[C@]2(C(=O)CO)O1 (stereo partly specified) [BUDESONIDE]", "Measurement Label": "Bacterial Biotransformation", "Result": "Compound NOT metabolized"}
{"Compound": "COc1ccccc1OCC(O)COC(N)=O (stereo unspecified) [METHOCARBAMOL]", "Measurement Label": "Bacterial Biotransformation", "Result": "Compound NOT metabolized"}
{"Compound": "CC[C@@H](CO)NC(=O)[C@@H]1C=C2c3cccc4c3c(cn4C)C[C@H]2N(C)C1.O=C(O)/C=C\\C(=O)O [METHYSERGIDE MALEATE]", "Measurement Label": "Bacterial Biotransformation", "Result": "Compound metabolized"}
{"Compound": "NC12CC3CC(CC(C3)C1)C2 [AMANTADINE]", "Measurement Label": "Bacterial Biotransformation", "Result": "Compound NOT metabolized"}
{"Compound": "Cc1ccc(-c2cc(C(F)(F)F)nn2-c2ccc(S(N)(=O)=O)cc2)cc1 [CELECOXIB]", "Measurement Label": "Bacterial Biotransformation", "Result": "Compound NOT metabolized"}

Data provenance: ChEMBL document CHEMBL5303573
